tgt: furin, P09958
Sequence (P09958 whole entry): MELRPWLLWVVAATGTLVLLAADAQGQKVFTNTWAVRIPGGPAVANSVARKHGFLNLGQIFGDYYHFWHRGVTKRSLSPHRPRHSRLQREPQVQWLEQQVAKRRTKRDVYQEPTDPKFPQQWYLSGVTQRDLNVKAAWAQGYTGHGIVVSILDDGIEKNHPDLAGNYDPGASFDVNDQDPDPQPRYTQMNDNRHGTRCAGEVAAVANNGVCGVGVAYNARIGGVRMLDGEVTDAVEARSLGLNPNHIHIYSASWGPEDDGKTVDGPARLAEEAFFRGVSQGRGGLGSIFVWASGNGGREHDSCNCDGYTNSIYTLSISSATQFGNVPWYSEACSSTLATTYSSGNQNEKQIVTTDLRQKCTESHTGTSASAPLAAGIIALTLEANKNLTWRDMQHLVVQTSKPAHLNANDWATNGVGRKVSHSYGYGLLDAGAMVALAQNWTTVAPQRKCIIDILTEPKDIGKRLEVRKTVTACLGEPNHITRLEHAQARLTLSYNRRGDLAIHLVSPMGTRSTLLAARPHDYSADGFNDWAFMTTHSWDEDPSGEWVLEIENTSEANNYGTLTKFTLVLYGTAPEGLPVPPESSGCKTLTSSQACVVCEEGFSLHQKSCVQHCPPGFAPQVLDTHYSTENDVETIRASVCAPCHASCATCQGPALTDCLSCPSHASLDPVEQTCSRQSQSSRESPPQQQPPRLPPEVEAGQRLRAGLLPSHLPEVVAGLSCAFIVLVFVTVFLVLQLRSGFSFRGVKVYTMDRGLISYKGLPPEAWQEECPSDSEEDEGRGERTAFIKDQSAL
assay-remarks: furin cleavage Z-score vs untreated control; higher = more cleavage, active = 3.5 or more, inactive = 1 or less, 8 variable residues between constant flanks;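 also: purified furin at 1:10 enzyme:substrate in 50 mM HEPES pH 7.5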
reported-conditions: 15 min
This is one part of the list. The true hit rate is not given.
Outcomes: t = active, f = inactive

> print(dat)
                          chain  category
1  CARKDRRKKGAGNASASA [FS-2035]         f
2   CAEDTTPCSGAGNASASA [HC1971]         f
3  CARKRRGTGYAGNASASA [FS-2565]         t
4  CARKRREAESAGNASASA [FS-2972]         t
5  CARKKRNGLTAGNASASA [FS-2155]         t
6  CARKRRSIRYAGNASASA [FS-2975]         t
7  CARKRRGTKGAGNASASA [FS-1959]         t
